- Measurement Parameters: 323.15 K; 101.33 kPa; Liquid; Concentric cylinders viscometry
Recorded Metric: viscosity (mPa·s)

> print(dat)
                                   compound  recorded.metric  endpoint.result
1  CCCC[N+]1(C)CCCC1.O=S(=O)([N-]S(=O)(=O)C(F)(F)F)C(F)(F)F        viscosity            29.38
2  CCCC[N+]1(C)CCCC1.FC(F)(F)C(F)(F)[P-](F)(F)(F)(C(F)(F)C(F)(F)F)C(F)(F)C(F)(F)F        viscosity            61.13
3  CCCC[N+]1(C)CCCC1.O=S(=O)([O-])C(F)(F)F [1-butyl-1-methylpyrrolidinium trifluoromethanesulfonate]        viscosity            54.48
4  CCOS(=O)(=O)[O-].CCn1cc[n+](C)c1 [1-ethyl-3-methylimidazolium ethyl sulfate]        viscosity            34.73
5  CCCCCCCCCCCCCC[P+](CCCCCC)(CCCCCC)CCCCCC.FC(F)(F)C(F)(F)[P-](F)(F)(F)(C(F)(F)C(F)(F)F)C(F)(F)C(F)(F)F        viscosity            96.23
6  COCC[N+]1(C)CCCC1.O=S(=O)([N-]S(=O)(=O)C(F)(F)F)C(F)(F)F        viscosity            22.66
7  CCCCn1cc[n+](C)c1C.O=S(=O)([N-]S(=O)(=O)C(F)(F)F)C(F)(F)F        viscosity            34.45
8  CCCCCCOS(=O)(=O)[O-].CC[n+]1ccn(C)c1 [3-ethyl-1-methyl-1H-imidazolium hexyl sulfate]        viscosity            86.06

====

- Measurement Parameters: 313.15 K; 101.33 kPa; Liquid; Concentric cylinders viscometry
Property: viscosity; scope: individual compounds
Recorded Metric: viscosity (mPa·s)

> print(dat)
                                   compound  endpoint.result
1  COCC[N+]1(C)CCCC1.O=S(=O)([N-]S(=O)(=O)C(F)(F)F)C(F)(F)F            31.15
2  CCCC[N+]1(C)CCCC1.O=S(=O)([O-])C(F)(F)F [1-butyl-1-methylpyrrolidinium trifluoromethanesulfonate]            81.62
3  CCCCCCCCCCCCCC[P+](CCCCCC)(CCCCCC)CCCCCC.FC(F)(F)C(F)(F)[P-](F)(F)(F)(C(F)(F)C(F)(F)F)C(F)(F)C(F)(F)F           153.61
4  CCCC[N+]1(C)CCCC1.FC(F)(F)C(F)(F)[P-](F)(F)(F)(C(F)(F)C(F)(F)F)C(F)(F)C(F)(F)F            95.36

====

- Measurement Parameters: 373.15 K; 101.33 kPa; Liquid; Concentric cylinders viscometry
Property: viscosity; scope: individual molecules
Recorded Metric: viscosity (mPa·s)

> print(dat)
                                   molecule  endpoint.result
1  CCCCn1cc[n+](C)c1C.O=S(=O)([N-]S(=O)(=O)C(F)(F)F)C(F)(F)F            8.813
2  CCCCCCOS(=O)(=O)[O-].CC[n+]1ccn(C)c1 [3-ethyl-1-methyl-1H-imidazolium hexyl sulfate]            16.87
3  COCC[N+]1(C)CCCC1.O=S(=O)([N-]S(=O)(=O)C(F)(F)F)C(F)(F)F            7.263
4  CCCCCCCCCCCCCC[P+](CCCCCC)(CCCCCC)CCCCCC.FC(F)(F)C(F)(F)[P-](F)(F)(F)(C(F)(F)C(F)(F)F)C(F)(F)C(F)(F)F            17.57
5  CCCC[N+]1(C)CCCC1.O=S(=O)([O-])C(F)(F)F [1-butyl-1-methylpyrrolidinium trifluoromethanesulfonate]            12.95
6  CCOS(=O)(=O)[O-].CCn1cc[n+](C)c1 [1-ethyl-3-methylimidazolium ethyl sulfate]            9.518
7  CCCC[N+]1(C)CCCC1.FC(F)(F)C(F)(F)[P-](F)(F)(F)(C(F)(F)C(F)(F)F)C(F)(F)C(F)(F)F            13.04
8  CCCC[N+]1(C)CCCC1.O=S(=O)([N-]S(=O)(=O)C(F)(F)F)C(F)(F)F            8.454

====

Property: mass density; scope: individual molecules
- Measurement Parameters: 328.15 K; 101.33 kPa; Liquid; Vibrating tube method
Recorded Metric: mass density (kg/m3)

> print(dat)
                                   molecule  endpoint.result
1  CCCC[N+]1(C)CCCC1.O=S(=O)([N-]S(=O)(=O)C(F)(F)F)C(F)(F)F           1368.7
2  CCCCn1cc[n+](C)c1C.O=S(=O)([N-]S(=O)(=O)C(F)(F)F)C(F)(F)F           1391.8
3  CCCC[N+]1(C)CCCC1.O=S(=O)([O-])C(F)(F)F [1-butyl-1-methylpyrrolidinium trifluoromethanesulfonate]           1230.8
4  CCCCCCOS(=O)(=O)[O-].CC[n+]1ccn(C)c1 [3-ethyl-1-methyl-1H-imidazolium hexyl sulfate]           1110.8

====

- Measurement Parameters: 348.15 K; 101.33 kPa; Liquid; Concentric cylinders viscometry
Recorded Metric: viscosity (mPa·s)

> print(dat)
                                   molecule  unit.abbreviation  endpoint.result
1  CCCCn1cc[n+](C)c1C.O=S(=O)([N-]S(=O)(=O)C(F)(F)F)C(F)(F)F              mPa·s            15.83
2  CCCCCCCCCCCCCC[P+](CCCCCC)(CCCCCC)CCCCCC.FC(F)(F)C(F)(F)[P-](F)(F)(F)(C(F)(F)C(F)(F)F)C(F)(F)C(F)(F)F              mPa·s             36.8
3  COCC[N+]1(C)CCCC1.O=S(=O)([N-]S(=O)(=O)C(F)(F)F)C(F)(F)F              mPa·s            11.88
4  CCCC[N+]1(C)CCCC1.FC(F)(F)C(F)(F)[P-](F)(F)(F)(C(F)(F)C(F)(F)F)C(F)(F)C(F)(F)F              mPa·s            25.24
5  CCOS(=O)(=O)[O-].CCn1cc[n+](C)c1 [1-ethyl-3-methylimidazolium ethyl sulfate]              mPa·s             16.6
6  CCCC[N+]1(C)CCCC1.O=S(=O)([O-])C(F)(F)F [1-butyl-1-methylpyrrolidinium trifluoromethanesulfonate]              mPa·s            24.08
7  CCCC[N+]1(C)CCCC1.O=S(=O)([N-]S(=O)(=O)C(F)(F)F)C(F)(F)F              mPa·s             14.5
8  CCCCCCOS(=O)(=O)[O-].CC[n+]1ccn(C)c1 [3-ethyl-1-methyl-1H-imidazolium hexyl sulfate]              mPa·s            33.86

====

- Measurement Parameters: 278.15 K; 101.33 kPa; Liquid; Concentric cylinders viscometry
Property: viscosity; scope: individual compounds
Recorded Metric: viscosity (mPa·s)

> print(dat)
                                   compound  recorded.metric  unit.abbreviation  endpoint.result
1  CCCCCCOS(=O)(=O)[O-].CC[n+]1ccn(C)c1 [3-ethyl-1-methyl-1H-imidazolium hexyl sulfate]        viscosity              mPa·s           1362.1
2  CCCCCCCCCCCCCC[P+](CCCCCC)(CCCCCC)CCCCCC.FC(F)(F)C(F)(F)[P-](F)(F)(F)(C(F)(F)C(F)(F)F)C(F)(F)C(F)(F)F        viscosity              mPa·s           1345.2
3  CCCCn1cc[n+](C)c1C.O=S(=O)([N-]S(=O)(=O)C(F)(F)F)C(F)(F)F        viscosity              mPa·s           353.44
4  CCCC[N+]1(C)CCCC1.O=S(=O)([N-]S(=O)(=O)C(F)(F)F)C(F)(F)F        viscosity              mPa·s            230.3
5  COCC[N+]1(C)CCCC1.O=S(=O)([N-]S(=O)(=O)C(F)(F)F)C(F)(F)F        viscosity              mPa·s           149.89
6  CCOS(=O)(=O)[O-].CCn1cc[n+](C)c1 [1-ethyl-3-methylimidazolium ethyl sulfate]        viscosity              mPa·s           321.37
